# Target Entity: Msm. GyrB (Mycolicibacterium smegmatis, UniProt A0QNE0)
# Sequence (A0QNE0 whole entry): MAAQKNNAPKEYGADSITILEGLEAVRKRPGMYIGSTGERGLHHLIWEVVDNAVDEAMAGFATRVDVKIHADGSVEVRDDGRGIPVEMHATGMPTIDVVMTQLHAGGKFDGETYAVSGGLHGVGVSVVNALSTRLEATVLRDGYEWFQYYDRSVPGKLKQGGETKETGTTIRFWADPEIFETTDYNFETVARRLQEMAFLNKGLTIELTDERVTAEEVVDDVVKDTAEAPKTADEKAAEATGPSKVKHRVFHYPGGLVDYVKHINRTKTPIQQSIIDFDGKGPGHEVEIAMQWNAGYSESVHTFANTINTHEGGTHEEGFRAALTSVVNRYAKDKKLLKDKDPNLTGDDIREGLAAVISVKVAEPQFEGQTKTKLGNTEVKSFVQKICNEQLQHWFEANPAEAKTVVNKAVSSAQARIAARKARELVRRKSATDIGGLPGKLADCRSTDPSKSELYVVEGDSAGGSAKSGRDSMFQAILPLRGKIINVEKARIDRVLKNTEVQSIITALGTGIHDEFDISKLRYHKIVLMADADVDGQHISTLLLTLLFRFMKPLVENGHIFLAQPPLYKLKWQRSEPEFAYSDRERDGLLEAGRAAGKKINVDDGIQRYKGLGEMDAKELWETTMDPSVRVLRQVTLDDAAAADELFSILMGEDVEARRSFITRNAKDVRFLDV
pIC50: −log10 of the molar value.
Short version: pIC50 at least 7 is met, less is not met.

These recorded examples may help you get a feel for the data.
1. CCNC(=O)Nc1nc2cc(-c3cncnc3)c(OCC3CCCO3)nc2s1 (stereo not shown) : met
2. CCNC(=O)Nc1nc2cc(-c3ccc(F)nc3)c(OC(C)C)nc2s1 : met
3. CCNC(=O)Nc1nc2cc(-c3ccc(F)nc3)c(OCC3CCOCC3)nc2s1 : met
4. C=CCNC(=O)Nc1nc2cc(-c3nc(C(=O)O)cs3)cnc2s1 : not met
5. CCNC(=O)Nc1nc2cc(-c3cncnc3)c(OC[C@H]3CCCO3)nc2s1 : met

Now for another entry.
Task item: Could you verify whether the entry `CCNC(=O)Nc1nc2cc(-c3cncnc3)c(OC)nc2s1` shows pIC50 of no less than 7?
Reply: met
